Item-by-item account of melting point

# compound, melting point
rows = [
    ("O=C1N(N2CCOCC2)c2ccccc2C1(Cc1ccncc1)c1ccccc1 (centres undefined)", "190 to 192 °C"),
    ("Cc1ccc(-n2c(=O)c(C)nc3cccnc32)cc1", "215 to 216 °C"),
    ("CCOc1ccc(C(=O)Nc2c(Cl)cncc2Cl)c2c3cc(Cl)ccc3n(Cc3ccccc3)c12", "221 to 223 °C"),
    ("COc1ccc(C(=O)O)c(Sc2ccc(SC)cc2)c1", "202 to 203 °C"),
    ("ClCc1c(-c2ccccc2)c(-c2ccccc2)nn1Cc1ccccc1", "99 °C"),
    ("CCc1ccc(Nc2nc3cc(NC(=O)c4ccc(Cl)cc4)ccc3o2)cc1", "> 250 °C"),
    ("CCNC(=O)c1nc(Cl)c(Cl)[nH]1", "146 °C"),
    ("CC(CO)(CO)NS(=O)(=O)c1cc(NC(=O)c2cnn3c(C(F)(F)F)cc(-c4ccc(C(F)(F)F)cc4)nc23)c(Cl)s1", "201 °C"),
    ("CCOc1cccc(C(c2ccccc2Cl)n2nc(C(=O)O)c3c2-c2ccc(OCc4cncnc4)cc2CC3)c1 (centres undefined)", "234 to 235 °C"),
    ("COc1cc2ncc(C#N)c(Nc3ccc(F)c(Cl)c3)c2cc1NC(=O)C=CCN(CC(C)O)CC(C)O (centres undefined)", "122 to 125 °C"),
    ("FC(F)(F)c1ccc(Oc2cc(Cl)nc(Cl)c2)c(Cl)c1", "66 °C"),
    ("Cc1nnc(-c2ccc3occ(C(=O)O)c3c2)o1", "252 to 253 °C"),
    ("CC(C)COC(=O)N[C@H](CCCNC(=O)OCc1ccccc1)C(=O)NCc1ccc(CC(N)=O)cc1", "145 °C"),
    ("Cc1ccccc1C1c2cc(NC(=O)CC(C)(C)C)c(C)c(C)c2OC1(C)C (centres undefined)", "161 to 162 °C"),
    ("C=C1NC(=O)N(Cc2ccccc2)C1=N", "139 to 141 °C"),
    ("c1cncc(NC2CCNCC2)c1", "127 to 129 °C"),
    ("COc1cc([N+](=O)[O-])c2nccc(C)c2c1OCCCCc1ccccc1", "88 to 89 °C"),
    ("CC(C)(C)OC(=O)N[C@@H](CC(=O)OCc1ccccc1)C(=O)NCCc1ccc(OCC(=O)OCc2ccccc2)cc1", "178 to 180 °C"),
    ("Oc1ccc(-c2cnc3cnc(-c4ccc(O)cc4)nc3c2)cc1", "307 to 308 °C"),
]

====

Item-by-item account of melting point

# compound, melting point
rows = [
    ("Cc1c(-c2ccccc2)sc2c1c(=O)c(C(=O)C(C)C)cn2Cc1c(F)cccc1F", "205 to 207 °C"),
    ("C=C(C)Cc1cc(C=O)cc(OC)c1O", "53 to 54 °C"),
    ("Cc1cc(C2CCCC2)c(O)c(C2CCCC2)c1", "78 °C"),
    ("CC(C)(C)OC(=O)NNC1C2CC3CC(C2)CC1C3 (stereo unspecified)", "90 to 92 °C"),
    ("CC(=O)OC1(N=NC2(OC(C)=O)CCCCC2)CCCCC1", "91 to 94 °C"),
    ("Fc1ccc(-c2[nH]nc(Nc3ccccc3)c2-c2ccncc2)cc1", "218 to 219 °C"),
    ("COc1ccc2c(c1)C(=O)N(c1cc3ccn(C)c3cn1)C2", "205 to 210 °C"),
    ("Cn1cc(S(=O)(=O)Cl)c(=O)c2cc(F)ccc21", "> 300 °C"),
    ("CCNC(=O)Nc1nc2cc(-c3cccnc3)cc(C(=O)OC)n2n1", "211 to 213 °C"),
    ("O=C(NS(=O)(=O)c1ccccc1-c1ccccc1)Oc1ccccc1", "114 to 117 °C"),
    ("CC(C)(C)c1ccc(NC(=O)Nc2ccc(Oc3cc(NCc4ccccc4)ncn3)cc2)cc1", "118 to 120 °C"),
    ("COC(=O)c1nc(CN(C)C)n(-c2ccc(Cl)cc2C(=O)c2ccccc2)n1", "118 to 121 °C"),
    ("O=C(O)c1cccc(-c2cccc3nc(Cc4cccc(C(F)(F)F)c4)oc23)c1", "175 to 176 °C"),
    ("COc1cccc(Oc2cccc(Oc3ccc4c(c3)OCO4)c2C(=O)O)c1", "146 to 148 °C"),
    ("CS(=O)(=O)c1cccc(-c2ccccc2NC(=S)NC(=O)c2ccccc2)c1", "179 to 180 °C"),
    ("COc1ccc(CN2C(=O)C(O)(c3ccncc3Cl)c3cc(Cl)ccc32)c(OC)c1 (stereo unspecified)", "215 °C"),
    ("C=CCNc1c(C#N)cnc2cn[nH]c12", "249 to 252 °C"),
    ("COc1ccc(-c2nn(Cc3ccccc3)c(=O)c3ccccc23)c(O)c1OC", "155 to 156 °C"),
    ("CC(=O)NS(=O)(=O)c1cccc(N)c1", "148 to 150 °C"),
    ("NC(=O)c1ccc2nc3sc(-c4ccccc4)cc3c(=O)n2c1", "348 to 352 °C"),
    ("O=C(OCC(=O)N1CCCCC1)c1ccc(O)cc1", "160 to 164 °C"),
]

====

Item-by-item account of melting point

# compound structure, melting point
data = [
    ("COc1cc2cc(C(=O)O)[nH]c2cc1OCCCl", "187 to 189 °C"),
    ("CCOC(=O)c1nc2ccccc2nc1C", "74 to 75 °C"),
    ("COc1cc2c(Nc3ccc(Cl)cc3F)ncnc2cc1OCCn1ccccc1=O", "209 to 211 °C"),
    ("O=C(NCCO)c1cccc(-c2ccc3ccn(-c4ncc(Cl)cc4Cl)c3n2)c1", "196 to 197 °C"),
    ("NC(=O)c1cc(C(=O)c2ccccc2)ccc1N", "225 °C"),
    ("Cc1nnc(CNc2c(C)cccc2C)o1", "134 to 135 °C"),
]

====

Item-by-item account of melting point

# molecule, melting point
rows = [
    ("CCOC(=O)c1cc2ccc(Cl)nc2[nH]1", "144 to 145 °C"),
    ("CCn1c(N)c(C(=O)NC)c(=O)c2ccc(-c3ccc(NS(=O)(=O)c4cccc(Cl)c4Cl)cc3)nc21", "210 °C"),
    ("CCOC(=O)CCCCCOC(=O)c1c(I)c(NC(C)=O)c(I)c(NC(C)=O)c1I", "235 to 238 °C"),
    ("Cn1ncnc1COc1nn2c(-c3ccco3)nncc2c1-c1ccccc1F", "204 to 206 °C"),
    ("Cc1nc2cnc(N3CCN(CCCC(=O)c4ccc(F)cc4)CC3)cc2[nH]1", "180 to 183 °C"),
    ("CCCCOCCOc1ccc(-c2ccc3c(c2)C=C(C(=O)Nc2ccc(/C(Cc4nccn4CCC)=N/OCC)cc2)CCN3CC(C)C)cc1", "156 °C"),
    ("CCCC(O)c1cc2c(cc1C)OCO2 (stereo not given)", "65.5 to 66.5 °C"),
    ("COC(=O)CC(NC(=O)C(CSC(C)=O)Cc1ccccc1)c1ccc2ccccc2c1 (stereo not given)", "133 to 135 °C"),
    ("COc1ccc(S(=O)(=O)C(C)(Cc2ccc(OCCN3CCCCC3)cc2)C(=O)NO)cc1 (stereo not given)", "98 °C"),
    ("CN1C(=O)C(Cc2ccccc2)Oc2ccc(N)cc21 (stereo not given)", "82 to 85 °C"),
    ("CCCN(Cc1ccc(-c2ccccc2C(=O)C(=O)O)cc1)c1ncccc1C(=O)O", "179 to 180 °C"),
    ("NC(=O)N1c2ccccc2CC(O)c2ccccc21 (stereo not given)", "70.4 to 101 °C"),
    ("Cc1ccc(Nc2nc(=O)c3cccnc3s2)cc1", "208 to 209 °C"),
    ("Cc1oc(-c2ccccc2)nc1COc1ccc(CON=C(CCCCCCCC(=O)O)c2ccccc2)cc1", "67 to 68 °C"),
    ("CC1=N/C(=C\\c2c[nH]c3ncc(Cl)cc23)C(=O)N1C", "295 to 300 °C"),
    ("COc1ccc(-n2cc(CCCOc3c(CC(=O)O)cccc3OC)c(C(C)C)n2)nn1", "124 to 125 °C"),
    ("O=C(NC1=CCN(CCc2ccccc2)CC1)c1ccccc1", "115 to 117 °C"),
    ("CCN(CCCOc1ccc(C(=O)O)cc1)c1ccc(Cl)cc1", "146 to 149 °C"),
    ("CC(c1ccco1)N(O)C(N)=O (stereo not given)", "143 to 144 °C"),
    ("CNc1ccc2c(c1)C(c1ccccc1F)=NCc1cnc(C)n1-2", "255 to 259 °C"),
]

Origin of the recorded values: a melting point compilation (Tetko et al.; mined from patent text by program, amines drawn as free bases though some values may be those of a salt)
